property: melting point

Please review the entries below; each comes with its answer.
INSERT INTO measurements (compound, result) VALUES
  ('CN(C)Cc1c(-c2ccc(O)cc2)oc2ccccc2c1=O.Cl [Example 20]', '271.5 to 272.3 °C'),
  ('Cc1cc(-c2cc(=O)c3ccccc3o2)cc(C)c1O [Example 7]', '255 to 256 °C'),
  ('Cn1c(-c2ccc(O)c(F)c2)cc2ncccc2c1=O [Example 56]', '182 to 184 °C'),
  ('O=c1cc(-c2ccc(O)c(Br)c2)oc2ncccc12 [Example 42]', '267 to 272 °C');

Prompt: Request the reported melting point associated with O=c1[nH]c(-c2ccc(O)cc2)cc2ccccc12 [Example 53, 3-(4-hydroxyphenyl)-2H-isoquinolin-1-one]
Completion: 239 to 241 °C

Each recorded value in this set is attributed to patent US8093273B2.
